Origin of the recorded values: patent US20250270200A1

- TESTED SYSTEM: human CTPS1 (Homo sapiens)
- PROCEDURE SUMMARY: ADP-Glo assay, human CTPS1 enzyme inhibition
- Format: biochemical
- ASSAY CONDITIONS: wild-type human CTPS1, 25 nM enzyme; ADP-Glo; read-out: ADP-Glo_WT_hCTPS1—25 nM_IC50 (IC50)
pIC50: −log10 of the molar value.
VALUE TYPE: pIC50

-- ask pIC50 for CCOc1cncc(-c2cnc(C(=O)NC(C[C@@H]3COCCN3C)c3cc(NS(=O)(=O)C4CC4)ccn3)s2)n1 (single isomer, unassigned) [I-103] ?
-- reply < 7.00

-- ask pIC50 for CCOc1cncc(-c2cnc(C(=O)N[C@@H](CN3C[C@H]4CC[C@@H]3C4)c3cccc(NS(=O)(=O)C(F)F)c3)s2)n1 [I-210] ?
-- reply 7.60 to 8.30

-- ask pIC50 for CCOc1cncc(-c2cnc(C(=O)NC(c3cc(NS(=O)(=O)C4CC4)ccn3)C3CN(C)CCO3)s2)n1 (single isomer, unassigned) [I-106] ?
-- reply 7.60 to 8.30

-- ask pIC50 for CCOc1cncc(-c2cnc(C(=O)N[C@@H](c3cc(NS(=O)(=O)C4CC4)ccn3)[C@@H]3CCN(CCF)C3)s2)n1 [I-109] ?
-- reply 7.60 to 8.30

-- ask pIC50 for CCOc1cncc(-c2cnc(C(=O)N[C@@H](c3cccc(NS(=O)(=O)C(F)F)c3)[C@@H]3COCCO3)s2)n1 [I-200] ?
-- reply 7.60 to 8.30

-- ask pIC50 for CC(C)(O)[C@@H](NC(=O)c1ncc(-c2cnn3ccc(Cl)cc23)s1)c1cc(NS(=O)(=O)C2CC2)ccn1 [I-278] ?
-- reply 7.00 to 7.30

-- ask pIC50 for O=C(N[C@]1(c2cc(NS(=O)(=O)C3CC3)ccn2)C[C@@H](O)C1)c1ncc(-c2cnn3ccc(Cl)cc23)s1 [I-90] ?
-- reply 7.60 to 8.30

---

- TESTED SYSTEM: human CTPS1 (Homo sapiens, UniProt P17812)
- Sequence (P17812 1-591): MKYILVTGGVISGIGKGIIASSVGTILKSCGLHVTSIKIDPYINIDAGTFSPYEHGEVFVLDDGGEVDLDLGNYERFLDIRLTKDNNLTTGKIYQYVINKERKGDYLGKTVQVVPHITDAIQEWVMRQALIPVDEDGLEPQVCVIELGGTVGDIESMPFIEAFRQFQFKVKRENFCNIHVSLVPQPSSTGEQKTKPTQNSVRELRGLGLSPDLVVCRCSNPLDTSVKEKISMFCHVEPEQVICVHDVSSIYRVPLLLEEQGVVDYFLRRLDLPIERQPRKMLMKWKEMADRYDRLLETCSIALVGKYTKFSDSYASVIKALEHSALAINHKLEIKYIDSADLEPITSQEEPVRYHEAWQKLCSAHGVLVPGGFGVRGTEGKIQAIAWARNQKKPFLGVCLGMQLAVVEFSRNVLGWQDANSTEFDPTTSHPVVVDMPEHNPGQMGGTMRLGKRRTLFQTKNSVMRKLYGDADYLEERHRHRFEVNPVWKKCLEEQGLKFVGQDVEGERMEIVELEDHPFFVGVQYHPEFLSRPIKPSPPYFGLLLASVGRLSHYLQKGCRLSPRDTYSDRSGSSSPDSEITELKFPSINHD
- PROCEDURE SUMMARY: ADP-Glo assay, human CTPS1 enzyme inhibition
- Assay type: biochemical
- ASSAY CONDITIONS: wild-type human CTPS1, 25 nM enzyme; ADP-Glo; read-out: ADP-Glo_WT_hCTPS1—25 nM_IC50 (IC50)
VALUE TYPE: IC50

-- ask IC50 for CCOc1cncc(-c2cnc(C(=O)N[C@H](CCN3CCCCC3)c3cccc(NS(=O)(=O)C(F)F)c3)s2)n1 ?
-- reply 5 to 25 nM

-- ask IC50 for CCOc1cncc(-c2cnc(C(=O)N[C@@H](CN3CCCC3=O)c3cc(NS(=O)(=O)C4CC4)ccn3)s2)n1 ?
-- reply 5 to 25 nM

-- ask IC50 for CCOc1cncc(-c2cnc(C(=O)N[C@H](c3cc(NS(=O)(=O)C4CC4)ccn3)[C@@H]3CN(C)CCO3)s2)n1 ?
-- reply 5 to 25 nM

-- ask IC50 for CCOc1cncc(-c2cnc(C(=O)N[C@H](c3cc(NS(=O)(=O)C4CC4)ccn3)[C@H](C)CO)s2)n1 ?
-- reply ≤ 5 nM

-- ask IC50 for CCOc1cncc(-c2cnc(C(=O)N[C@@H](c3cccc(NS(=O)(=O)C(F)F)c3)[C@H](C)N3CCOCC3)s2)n1 ?
-- reply 5 to 25 nM

-- ask IC50 for CCOc1cncc(-c2cnc(C(=O)N[C@@H](C[C@H]3COCCN3C)c3cccc(NS(=O)(=O)C(F)F)c3)s2)n1 ?
-- reply 5 to 25 nM

-- ask IC50 for CCOc1cncc(-c2cnc(C(=O)N[C@@H](c3cc(NS(=O)(=O)C4CC4)ccn3)[C@@H]3COCCO3)s2)n1 ?
-- reply ≤ 5 nM

-- ask IC50 for CCOc1cncc(-c2cnc(C(=O)N[C@@H](CN3CCCOCC3)c3cc(NS(=O)(=O)C4CC4)ccn3)s2)n1 ?
-- reply 5 to 25 nM

-- ask IC50 for CCOc1cncc(-c2cnc(C(=O)N[C@@H](CN3CC[C@](C)(O)C3)c3cc(NS(=O)(=O)C4CC4)ccn3)s2)n1 ?
-- reply 5 to 25 nM

-- ask IC50 for CCOc1cncc(-c2cnc(C(=O)NC(CC(C)(C)N(C)C)c3cc(NS(=O)(=O)C4CC4)ccn3)s2)n1 (centres unmarked) ?
-- reply 5 to 25 nM

-- ask IC50 for CCOc1cncc(-c2cnc(C(=O)N[C@H](c3cccc(NS(=O)(=O)C(F)F)c3)C(C)(C)O)s2)n1 ?
-- reply 5 to 25 nM

-- ask IC50 for CCOc1cncc(-c2cnc(C(=O)N[C@H](c3cc(NS(=O)(=O)C4CC4)ccn3)[C@@H]3C[C@@H]4CC[C@H]3O4)s2)n1 ?
-- reply ≤ 5 nM

-- ask IC50 for CCOc1cncc(-c2cnc(C(=O)N[C@H](c3cc(NS(=O)(=O)C4CC4)ncn3)C3CCOCC3)s2)n1 (single isomer, unassigned) ?
-- reply 5 to 25 nM

-- ask IC50 for CCOc1cncc(-c2cnc(C(=O)N[C@@H](c3cccc(NS(=O)(=O)C(F)F)c3)[C@@H](C)CO)s2)n1 ?
-- reply ≤ 5 nM

---

- TESTED SYSTEM: human CTPS1 (Homo sapiens, UniProt P17812)
- PROCEDURE SUMMARY: ADP-Glo assay, human CTPS1 enzyme inhibition
- Format: biochemical
- ASSAY CONDITIONS: wild-type human CTPS1, 25 nM enzyme; ADP-Glo; read-out: ADP-Glo_WT_hCTPS1—25 nM_IC50 (IC50)
VALUE TYPE: IC50

-- ask IC50 for CCOc1cncc(-c2cnc(C(=O)N[C@@H](COC)c3nccc(NS(=O)(=O)C4CC4)n3)s2)n1 ?
-- reply 25 to 50 nM

-- ask IC50 for C[C@H](CO)[C@H](NC(=O)c1ncc(-c2cnn3ccc(Cl)cc23)s1)c1cc(NS(=O)(=O)C2CC2)ccn1 ?
-- reply 5 to 25 nM

-- ask IC50 for CCOc1cncc(-c2cnc(C(=O)N[C@@H](CN3CCOCC3)c3cc(NS(=O)(=O)C4CC4)ncn3)s2)n1 (single isomer, unassigned) [I-247] ?
-- reply 5 to 25 nM

-- ask IC50 for CCOc1cncc(-c2cnc(C(=O)N[C@@H](Cn3ccnn3)c3cccc(NS(=O)(=O)C(F)F)c3)s2)n1 ?
-- reply 5 to 25 nM

---

- TESTED SYSTEM: UniProt P17812
- PROCEDURE SUMMARY: ADP-Glo assay, human CTPS1 enzyme inhibition
- Format: biochemical
- ASSAY CONDITIONS: wild-type human CTPS1 25 nM; ATP 120 μM, UTP 160 μM, GTP 60 μM, L-glutamine 100 μM; 25 degrees C.; read-out: ADP-Glo_WT_hCTPS1—25 nM_IC50 (IC50)
pIC50: −log10 of the molar value.
VALUE TYPE: pIC50

-- ask pIC50 for O=C(N[C@H](c1nccc(NS(=O)(=O)C2CC2)c1F)[C@H]1CCOC1)c1ncc(-c2cnn3ccc(Cl)cc23)s1 (single isomer, unassigned) ?
-- reply 7.60 to 8.30

-- ask pIC50 for CCOc1cncc(-c2cnc(C(=O)N[C@H](COC)c3cc(NS(=O)(=O)C4CC4)ncn3)s2)n1 (single isomer, unassigned) ?
-- reply 7.60 to 8.30

-- ask pIC50 for CCOc1cncc(-c2cnc(C(=O)N[C@@H](c3nccc(NS(=O)(=O)C4CC4)c3F)[C@@H]3CCOC3)s2)n1 (single isomer, unassigned) ?
-- reply 7.60 to 8.30

-- ask pIC50 for O=C(N[C@@H](c1nccc(NS(=O)(=O)C2CC2)c1F)[C@@H]1CCOC1)c1ncc(-c2cnn3ccc(Cl)cc23)s1 (single isomer, unassigned) ?
-- reply 7.60 to 8.30

-- ask pIC50 for CCOc1cncc(-c2cnc(C(=O)N[C@H](c3cccc(NS(=O)(=O)C(F)F)c3)[C@@H](C)CN3CCCCC3)s2)n1 (single isomer, unassigned) ?
-- reply 7.00 to 7.30

-- ask pIC50 for O=C(N[C@H](c1cc(NS(=O)(=O)C2CC2)ccn1)C1CCOCC1)c1nnc(-c2cnn3ccc(Cl)cc23)s1 (single isomer, unassigned) ?
-- reply 7.60 to 8.30
